# experiment-summary: JC-1 mitochondrial signal, unstimulated HepG2 cells – cell-based, JC-1 fluorescence, 24 h, 100 nL compound, profiling panel (AID 1167); further: test concentration not given here
# experimental-setup: HepG2 mitochondrial potential, higher = more signal
Kindly state z-score for each of the entries shown.
Numbers only.

Each compound below has a reported value. Please supply its z-score.
1. COc1ccc([Si](C)(C)[C@@H]2[C@@H](CCO)O[C@]3(C(=O)N(Cc4ccc(N5C(=O)c6ccccc6Oc6ccccc65)cc4)c4ccccc43)[C@H]2C)cc1
2. Cc1cc(C)c(C(O)C2C=CC3C(=O)N(c4ccccc4)C(=O)C3N2Nc2ccccc2)c(C)c1 (configuration not stated)
3. C=CCC(OC(C)=O)[C@@H]1[C@@H](N(Cc2cccc3ccccc23)C(=O)c2ccc(C)cc2)c2cc(OCCCO)ccc2N1C(=O)c1ccc2ccccc2c1 (some centres not stated)
4. CCCC=C(CCC)[C@@H](NS(=O)(=O)c1ccccc1)c1ccc(C(F)(F)F)cc1

1. -0.42
2. -1.21
3. 2.37
4. -3.56

Data origin, for the record: PubChem BioAssay
